Below, each of the compounds is paired with its reported Dmax value.
- TARGET_OF_ASSAY: NEK7 (Homo sapiens (Human), UniProt Q8TDX7+Q96SW2)
- Sequence (Q8TDX7 whole entry): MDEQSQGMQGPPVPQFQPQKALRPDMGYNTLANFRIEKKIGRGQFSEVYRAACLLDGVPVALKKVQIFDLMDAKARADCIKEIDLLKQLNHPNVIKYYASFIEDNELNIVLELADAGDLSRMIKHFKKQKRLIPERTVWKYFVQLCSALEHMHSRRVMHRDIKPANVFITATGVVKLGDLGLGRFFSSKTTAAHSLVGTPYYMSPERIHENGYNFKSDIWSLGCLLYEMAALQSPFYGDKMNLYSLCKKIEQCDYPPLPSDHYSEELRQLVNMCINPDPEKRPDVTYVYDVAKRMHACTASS
- Sequence (Q96SW2 whole entry): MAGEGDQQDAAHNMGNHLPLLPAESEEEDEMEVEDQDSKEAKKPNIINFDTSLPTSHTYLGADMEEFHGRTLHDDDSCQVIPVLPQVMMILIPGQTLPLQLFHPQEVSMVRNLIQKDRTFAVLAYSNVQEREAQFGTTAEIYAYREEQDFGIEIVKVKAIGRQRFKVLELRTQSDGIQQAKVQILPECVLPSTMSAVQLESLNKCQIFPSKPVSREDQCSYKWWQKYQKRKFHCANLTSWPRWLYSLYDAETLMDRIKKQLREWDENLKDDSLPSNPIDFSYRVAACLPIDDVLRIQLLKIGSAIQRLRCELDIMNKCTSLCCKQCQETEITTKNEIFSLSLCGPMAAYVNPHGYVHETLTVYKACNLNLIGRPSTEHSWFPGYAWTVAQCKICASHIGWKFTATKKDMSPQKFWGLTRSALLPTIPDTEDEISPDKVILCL
- Sequence (Q16531 2-1140 partner): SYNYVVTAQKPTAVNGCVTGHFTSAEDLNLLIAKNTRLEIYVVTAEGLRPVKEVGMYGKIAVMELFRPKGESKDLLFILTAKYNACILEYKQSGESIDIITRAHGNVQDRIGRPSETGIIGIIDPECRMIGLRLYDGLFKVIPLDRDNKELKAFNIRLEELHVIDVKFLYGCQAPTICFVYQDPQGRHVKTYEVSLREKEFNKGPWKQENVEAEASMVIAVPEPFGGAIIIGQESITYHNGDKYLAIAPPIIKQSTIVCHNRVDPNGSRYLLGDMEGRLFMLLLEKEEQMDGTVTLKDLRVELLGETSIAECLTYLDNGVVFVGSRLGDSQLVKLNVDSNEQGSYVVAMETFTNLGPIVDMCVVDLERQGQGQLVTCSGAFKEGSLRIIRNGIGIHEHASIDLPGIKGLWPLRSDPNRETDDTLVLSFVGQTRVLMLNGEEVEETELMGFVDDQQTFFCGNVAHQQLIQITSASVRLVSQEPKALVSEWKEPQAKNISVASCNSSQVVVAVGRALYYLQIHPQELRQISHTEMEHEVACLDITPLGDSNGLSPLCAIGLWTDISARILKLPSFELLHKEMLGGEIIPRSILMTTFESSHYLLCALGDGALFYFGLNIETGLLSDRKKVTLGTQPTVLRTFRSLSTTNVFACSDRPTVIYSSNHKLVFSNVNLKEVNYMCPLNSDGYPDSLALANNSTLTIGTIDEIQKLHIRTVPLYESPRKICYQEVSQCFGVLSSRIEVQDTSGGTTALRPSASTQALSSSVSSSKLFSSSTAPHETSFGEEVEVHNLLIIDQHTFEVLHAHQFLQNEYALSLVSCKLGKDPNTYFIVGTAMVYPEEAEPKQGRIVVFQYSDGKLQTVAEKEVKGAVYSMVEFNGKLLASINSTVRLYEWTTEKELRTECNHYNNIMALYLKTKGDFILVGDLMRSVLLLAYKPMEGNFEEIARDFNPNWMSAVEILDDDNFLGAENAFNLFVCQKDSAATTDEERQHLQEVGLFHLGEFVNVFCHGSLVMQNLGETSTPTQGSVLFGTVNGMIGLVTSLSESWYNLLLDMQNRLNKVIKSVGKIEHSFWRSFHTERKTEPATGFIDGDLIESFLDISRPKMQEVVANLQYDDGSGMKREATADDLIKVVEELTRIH
- TEST: NEK7 NanoBiT degradation assay in Cal51 NEK7 NanoBiT cell line
- Format: cell-based
- TEST_CONDITIONS: CAL-51; NEK7 degradation, Cal51 NEK7 NanoBiT cells, 24 hours; read-out: NanoBiT Dmax

Past entries and their recorded results:
{"columns": ["COMPOUND", "Dmax"],
 "data": [
  ["CC(C)(C(=O)NCc1cc(Cl)c(C2CCC(=O)NC2=O)c(Cl)c1)c1cccnn1 (centres unmarked)", "50 to 75%"],
  ["CC(C)(C(=O)NCc1cc(F)c(C2CCC(=O)NC2=O)c(Cl)c1)c1cnc(OC(F)(F)F)cn1 (centres unmarked)", "50 to 75%"]
]}

Entry under test: CC(C)(C(=O)NCc1cc(Cl)c(C2CCC(=O)NC2=O)c(Cl)c1)c1ccc(S(N)(=O)=O)c(F)c1 (centres unmarked) . Its Dmax was > 75%

Entry under test: Cc1cnc(C(C)(C)C(=O)NCc2cc(C)c(C3CCC(=O)NC3=O)c(Cl)c2)nc1 (centres unmarked) . Its Dmax was 50 to 75%

Entry under test: Cn1ccc(C(C)(C)C(=O)NCc2cc(Cl)c(C3CCC(=O)NC3=O)c(Cl)c2)n1 (centres unmarked) . Its Dmax was 50 to 75%

Entry under test: CC(C)(C(=O)NCc1cc(Cl)c(C2CCC(=O)NC2=O)c(Cl)c1)c1cnc2ncsc2c1 (centres unmarked) . Its Dmax was 50 to 75%

Entry under test: CC(C)(C(=O)NCc1cc(Cl)c(C2CCC(=O)NC2=O)c(Cl)c1)c1cccc2ocnc12 (centres unmarked) . Its Dmax was > 75%

Entry under test: CC(C)(C(=O)NCc1cc(Cl)c(C2CCC(=O)NC2=O)c(Cl)c1)c1cc(C(F)F)ncn1 (centres unmarked) . Its Dmax was > 75%

====

- TARGET_OF_ASSAY: CRBN-DDB1 (Homo sapiens (Human), UniProt Q96SW2)
- Sequence (Q96SW2 whole entry): as the sequence (Q96SW2 whole entry) above
- Sequence (Q16531 whole entry partner): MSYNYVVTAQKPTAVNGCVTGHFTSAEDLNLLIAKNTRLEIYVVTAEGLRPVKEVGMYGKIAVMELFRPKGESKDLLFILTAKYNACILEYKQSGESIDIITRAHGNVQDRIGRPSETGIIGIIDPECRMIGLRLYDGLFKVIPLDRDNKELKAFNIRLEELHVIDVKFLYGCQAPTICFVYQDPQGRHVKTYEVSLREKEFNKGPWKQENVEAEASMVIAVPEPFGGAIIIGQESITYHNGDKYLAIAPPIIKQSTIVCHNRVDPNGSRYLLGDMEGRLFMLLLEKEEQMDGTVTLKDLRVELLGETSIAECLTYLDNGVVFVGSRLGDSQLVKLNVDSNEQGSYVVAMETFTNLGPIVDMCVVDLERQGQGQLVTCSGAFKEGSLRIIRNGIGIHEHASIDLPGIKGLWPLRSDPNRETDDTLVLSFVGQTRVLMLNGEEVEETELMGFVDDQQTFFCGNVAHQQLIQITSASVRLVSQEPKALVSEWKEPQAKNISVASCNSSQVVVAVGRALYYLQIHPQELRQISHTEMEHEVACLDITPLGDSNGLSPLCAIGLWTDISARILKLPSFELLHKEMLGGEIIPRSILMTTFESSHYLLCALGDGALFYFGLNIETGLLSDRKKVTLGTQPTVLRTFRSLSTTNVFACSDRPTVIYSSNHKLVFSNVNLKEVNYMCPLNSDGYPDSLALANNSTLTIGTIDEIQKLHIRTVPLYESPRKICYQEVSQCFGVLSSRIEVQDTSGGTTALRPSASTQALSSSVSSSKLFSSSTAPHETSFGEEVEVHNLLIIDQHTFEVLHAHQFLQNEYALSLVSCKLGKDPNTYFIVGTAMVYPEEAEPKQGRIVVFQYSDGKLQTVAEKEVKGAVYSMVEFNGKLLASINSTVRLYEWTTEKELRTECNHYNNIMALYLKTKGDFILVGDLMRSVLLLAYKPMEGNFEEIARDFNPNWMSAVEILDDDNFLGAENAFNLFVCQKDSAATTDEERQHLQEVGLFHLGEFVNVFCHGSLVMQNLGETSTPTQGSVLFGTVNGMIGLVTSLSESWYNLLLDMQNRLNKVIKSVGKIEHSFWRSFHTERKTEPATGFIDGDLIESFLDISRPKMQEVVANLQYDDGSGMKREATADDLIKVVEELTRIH
- TEST: Compound binding to CRBN by HTRF assay
- TEST_CONDITIONS: HTRF class; Cereblon binding
Below, each of the molecules is paired with its reported EC50 value.

{"columns": ["MOLECULE", "RESULT"],
 "data": [
  ["CC(C)(C(=O)NCc1cc(Cl)c(C2CCC(=O)NC2=O)c(Cl)c1)c1ccnc(C(F)F)n1 (stereo not drawn)", "100 to 1000 nM"]
]}

Result for CC(C)(C(=O)NCc1cc(Cl)c(C2CCC(=O)NC2=O)c(Cl)c1)c1ccc(S(N)(=O)=O)cc1F (stereo not drawn) , tested on CRBN-DDB1 (Homo sapiens (Human), UniProt Q96SW2), EC50: ≤ 100 nM

Result for Cc1cc(C(C)(C)C(=O)NCc2cc(Cl)c(C3CCC(=O)NC3=O)c(Cl)c2)cc(C)n1 (stereo not drawn) , tested on CRBN-DDB1 (Homo sapiens (Human), UniProt Q96SW2), EC50: 100 to 1000 nM

Result for CC(C)(C(=O)NCc1cc(Cl)c(C2CCC(=O)NC2=O)c(Cl)c1)c1ccc(C(F)F)cn1 (stereo not drawn) , tested on CRBN-DDB1 (Homo sapiens (Human), UniProt Q96SW2), EC50: 100 to 1000 nM

====

- TARGET_OF_ASSAY: NEK7 (Homo sapiens (Human), UniProt Q8TDX7+Q96SW2)
- TEST: NEK7 NanoBiT degradation assay in Cal51 NEK7 NanoBiT cell line
- Assay type: cell-based
- TEST_CONDITIONS: Cal51 NEK7 NanoBiT cells, 24 hours; read-out: NEK7 NanoBiT DC50
Where a name gives a salt, the structure may show the parent alone.
PROPERTY_MEASURED: DC50 (nM)

Past entries and their recorded results:
{"columns": ["MOLECULE", "DC50 [nM]"],
 "data": [
  ["CC(C)(C(=O)NCc1cc(F)c(C2CCC(=O)NC2=O)c(Cl)c1)c1nc2ccccc2o1 (centres unmarked)", 7],
  ["CC(C)(C(=O)NCc1cc(Cl)c(C2CCC(=O)NC2=O)c(Cl)c1)c1ccc(C2CC2)nn1 (centres unmarked)", 5],
  ["COc1cnc(C(C)(C)C(=O)NCc2cc(Cl)c(C3CCC(=O)NC3=O)c(Cl)c2)cn1 (centres unmarked)", 1],
  ["COc1ccc(C(C)(C)C(=O)NCc2cc(F)c(C3CCC(=O)NC3=O)c(Cl)c2)cn1 (centres unmarked)", 2],
  ["CN1CCC(C(=O)NCc2cc(Cl)c(C3CCC(=O)NC3=O)c(Cl)c2)(c2ccc(F)cc2)CC1 (centres unmarked) [Compound 135, formate]", 16]
]}

A: Cc1conc1C(C)(C)C(=O)NCc1cc(F)c(C2CCC(=O)NC2=O)c(Cl)c1 (centres unmarked)
B: Cc1cc(C(C)(C)C(=O)NCc2cc(Cl)c(C3CCC(=O)NC3=O)c(Cl)c2)ncn1 (centres unmarked)
QUERY: Would you mind telling me which has the lower recorded DC50 between A and B ? Reply with the label of the item you choose.
RESULT: B
(B: 19 nM, A: 672 nM)

====

- TARGET_OF_ASSAY: UniProtKB Q96SW2
- TEST: Compound binding to CRBN by HTRF assay
- Method: Compound activity was monitored in a Homogenous Time-Resolved Fluorescence (HTRF) assay using 1-[5-({2-[2-(2-{[2-(2,6-dioxopiperidin-3-yl)-1,3-dioxo-2,3-dihydro-1H-isoindol-4-yl]oxy}acetamido)ethoxy]ethyl}carbamoyl)pentyl]-3,3-dimethyl-2-[(1E,3E)-5-[(2E)-1,3,3-trimethyl-5-sulfo-2,3-dihydro-1H-indol-2-ylidene]penta-1,3-dien-1-yl]-3H-indol-1-ium-5-sulfonate as a fluorescent probe. Biochemical assays were conducted in Greiner white 384 well HiBase plates (Cat. No 784075-25) in 20 μL total volume. […]
PROPERTY_MEASURED: EC50 (nM)

Past entries and their recorded results:
{"columns": ["COMPOUND", "NUMERIC_VALUE"],
 "data": [
  ["CC(C)(C(=O)NCc1cc(Cl)c(C2CCC(=O)NC2=O)c(Cl)c1)c1ccc(C#N)cc1 (centres unmarked) [Compound 29]", 80],
  ["CC(C)(C(=O)NCc1cc(Cl)c(C2CCC(=O)NC2=O)c(Cl)c1)c1ccncn1 (centres unmarked) [Compound 19]", 140],
  ["CC(C)(C(=O)NCc1cc(F)c(C2CCC(=O)NC2=O)c(Cl)c1)c1cnc(OC(F)(F)F)cn1 (centres unmarked) [Compound 264]", 130],
  ["CC(C)(C(=O)NCc1cc(Cl)c(C2CCC(=O)NC2=O)c(Cl)c1)c1cccc(C(N)=O)c1 (centres unmarked) [Compound 65]", 140]
]}

A: CC(C)(C(=O)NCc1cc(Cl)c(C2CCC(=O)NC2=O)c(Cl)c1)c1ccc(C(N)=O)cc1 (centres unmarked) [Compound 83]
B: COc1ccc(C(C)(C)C(=O)NCc2cc(F)c(C3CCC(=O)NC3=O)c(Cl)c2)nc1 (centres unmarked) [Compound 261]
QUERY: Would you mind telling me which has the lower recorded EC50 between A and B ? Reply with the label of the item you choose.
RESULT: B

====

- TARGET_OF_ASSAY: NEK7 (Homo sapiens (Human), UniProt Q8TDX7+Q96SW2)
- TEST: NEK7 NanoBiT degradation assay in Cal51 NEK7 NanoBiT cell line
- Format: cell-based
- TEST_CONDITIONS: NEK7 degradation, Cal51 NEK7 NanoBiT cells, 24 hours; read-out: NanoBiT DC50
Below, each of the molecules is paired with its reported DC50 value.

Past entries and their recorded results:
{"columns": ["MOLECULE", "PROPERTY_MEASURED", "RESULT"],
 "data": [
  ["Cc1noc(C)c1C(C)(C)C(=O)NCc1cc(Cl)c(C2CCC(=O)NC2=O)c(Cl)c1 (stereo not shown) [Compound 112]", "DC50", "> 1000 nM"],
  ["Cc1cnc(C(C)(C)C(=O)NCc2cc(F)c(C3CCC(=O)NC3=O)c(Cl)c2)o1 (stereo not shown) [Compound 270]", "DC50", "≤ 100 nM"],
  ["Cn1cc(C(C)(C)C(=O)NCc2cc(Cl)c(C3CCC(=O)NC3=O)c(Cl)c2)ccc1=O (stereo not shown) [Compound 67]", "DC50", "≤ 100 nM"],
  ["CC(C)(C(=O)NCc1cc(Cl)c(C2CCC(=O)NC2=O)c(Cl)c1)c1cncs1 (stereo not shown) [Compound 114]", "DC50", "≤ 100 nM"],
  ["CC(C)(C(=O)NCc1cc(Cl)c(C2CCC(=O)NC2=O)c(Cl)c1)c1cccc(S(N)(=O)=O)c1 (stereo not shown) [Compound 60]", "DC50", "≤ 100 nM"],
  ["Cc1ccnc(C(C)(C)C(=O)NCc2cc(Cl)c(C3CCC(=O)NC3=O)c(Cl)c2)n1 (stereo not shown) [Compound 160]", "DC50", "≤ 100 nM"],
  ["CC(C)(C(=O)NCc1cc(Cl)c([C@@]2(F)CCC(=O)NC2=O)c(Cl)c1)c1ccccc1 (single isomer, unassigned) [Compound 274]", "DC50", "> 1000 nM"],
  ["CC(C)(C(=O)NCc1cc(Cl)c(C2CCC(=O)NC2=O)c(Cl)c1)C1CCCCC1 (stereo not shown) [Compound 211]", "DC50", "≤ 100 nM"]
]}

Entry under test: O=C1CCC(c2c(Cl)cc(CNC(=O)C3(c4ccccc4)CCOCC3)cc2Cl)C(=O)N1 (stereo not shown) [Compound 128] . Its DC50 was ≤ 100 nM

Entry under test: CC(C)(C(=O)NCc1cc(Cl)c(C2CCC(=O)NC2=O)c(Cl)c1)c1ccnc(C(F)F)n1 (stereo not shown) [Compound 156] . Its DC50 was 100 to 1000 nM

Entry under test: O=C1CC(C(=O)NCc2cc(Cl)c(C3CCC(=O)NC3=O)c(Cl)c2)(c2ccc(F)cc2)C1 (stereo not shown) [Compound 137] . Its DC50 was ≤ 100 nM

Entry under test: CC(C)(C(=O)NCc1cc(Cl)c(C2CCC(=O)NC2=O)c(Cl)c1)c1cccc(F)c1 (stereo not shown) [Compound 27] . Its DC50 was ≤ 100 nM

Entry under test: Cc1noc(C(C)(C)C(=O)NCc2cc(Cl)c(C3CCC(=O)NC3=O)c(Cl)c2)n1 (stereo not shown) [Compound 164] . Its DC50 was ≤ 100 nM

Entry under test: CN1Cc2ccccc2CC1C(=O)NCc1cc(Cl)c(C2CCC(=O)NC2=O)c(Cl)c1 (stereo not shown) [Compound 48] . Its DC50 was ≤ 100 nM

Entry under test: CC(C)(C(=O)NCc1ccc(C2CCC(=O)NC2=O)c(Cl)c1)c1ccc(F)cc1 (stereo not shown) [Compound 30] . Its DC50 was ≤ 100 nM

Entry under test: Cc1cc(C(C)(C)C(=O)NCc2cc(Cl)c(C3CCC(=O)NC3=O)c(Cl)c2)nn1C (stereo not shown) [Compound 116] . Its DC50 was ≤ 100 nM

Attribution: patent US20250243180A1
